Molecular target: Coagulation factor X (Homo sapiens, UniProt P00742)
Experiment: Anticoagulant potency in human plasma as measured by prothrombin time
Sequence (P00742 whole entry, looked up): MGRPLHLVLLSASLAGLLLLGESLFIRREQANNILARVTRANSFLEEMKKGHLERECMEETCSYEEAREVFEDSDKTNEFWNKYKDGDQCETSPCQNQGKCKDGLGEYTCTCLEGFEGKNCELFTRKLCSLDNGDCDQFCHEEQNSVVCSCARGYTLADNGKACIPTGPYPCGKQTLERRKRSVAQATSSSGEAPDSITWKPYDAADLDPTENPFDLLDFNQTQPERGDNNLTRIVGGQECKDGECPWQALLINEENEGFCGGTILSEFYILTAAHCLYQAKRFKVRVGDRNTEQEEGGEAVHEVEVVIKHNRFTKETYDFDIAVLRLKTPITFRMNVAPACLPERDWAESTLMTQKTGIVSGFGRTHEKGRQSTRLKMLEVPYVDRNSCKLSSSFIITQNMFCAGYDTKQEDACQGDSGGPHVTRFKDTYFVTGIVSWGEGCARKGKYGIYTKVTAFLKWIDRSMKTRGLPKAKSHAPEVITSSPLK
quantity.name: 2PT (µM)

Cc1cc2cc(NC(=N/[C@H]3CCCCN(CC(=O)N4CCCC4)C3=O)/C(C#N)=C(\O)c3ccc(Cl)cc3)ccc2o1 = 62
CCO/C(O)=C(C#N)/C(=N\[C@H]1CCCCN(CC(=O)N2CCCC2)C1=O)Nc1ccc2oc(C)cc2c1 = 31

(a) Cc1cc2cc(N/C(N[C@H]3CCCCN(CC(=O)N4CCCC4)C3=O)=C(/C#N)S(C)(=O)=O)ccc2o1
(b) COc1ccc(/C(O)=C(C#N)/C(=N\[C@H]2CCCCN(CC(=O)N3CCCC3)C2=O)Nc2ccc3oc(C)cc3c2)cc1
(c) Cc1cc2cc(N/C(N[C@H]3CCCCN(CC(=O)N4CCCC4)C3=O)=C(/C#N)C(N)=O)ccc2o1
(d) Cc1cc2cc(NC(=N/[C@H]3CCCCN(CC(=O)N4CCCC4)C3=O)/C(C#N)=C(\O)OC(C)(C)C)ccc2o1
(e) Cc1cc2cc(N/C(N[C@H]3CCCCN(CC(=O)N4CCCC4)C3=O)=C(/C#N)C(=O)NC(N)=O)ccc2o1
Arrange the 5 molecules from largest to smallest 2PT. Respond with an ordered listing of the labels, as requested.
d, b, a, c, e

(A) Cc1cc2cc(NC(/C=C(\O)c3nccs3)=N/[C@H]3CCCCN(CC(=O)N4CCCC4)C3=O)ccc2o1
(B) Cc1cc2cc(N/C(N[C@H]3CCCCN(CC(=O)N4CCCC4)C3=O)=C(/C#N)C(=O)N3CCC(C)CC3)ccc2o1
Of the pair A and B , name the member with the lesser recorded 2PT. Use the label to indicate which entry you chose.
B

----------
pIC50 tested on Coagulation factor X (Homo sapiens): recorded values
pIC50: −log10 of the molar value.
quantity.name: pIC50

CCO/C(O)=C(C#N)/C(=N\[C@H]1CCCCN(CC(=O)N2CCCC2)C1=O)Nc1ccc2oc(C)cc2c1 = 7.62

(A) Cc1cc2cc(NC(=N/[C@H]3CCCCN(CC(=O)N4CCCC4)C3=O)/C(C#N)=C(\O)c3ccc(Cl)cc3)ccc2o1
(B) O=C(CN1CCCC[C@H](N/C(=C/[N+](=O)[O-])Nc2ccc3ccccc3c2)C1=O)N1CCCC1
Of the pair A and B , name the member with the lesser recorded pIC50. Use the label to indicate which entry you chose.
B

(A) Cc1cc2cc(N/C(N[C@H]3CCCCN(CC(=O)N4CCCC4)C3=O)=C(/C#N)C(N)=O)ccc2o1
(B) COc1ccc(N/C(=C\[N+](=O)[O-])N[C@H]2CCCCN(CC(=O)N3CCCC3)C2=O)cc1C
Thinking about recorded pIC50 values, which is higher, A or B ? Use the label to indicate which entry you chose.
A

----------
Test: Binding affinity to trypsin
Parameters: species or system Homo sapiens
quantity.name: Ki

Provide one value: measured Ki of Cc1cc2cc(NC(=N/[C@H]3CCCCN(CC(=O)N4CCCC4)C3=O)/C(C#N)=C(\O)OCCCCO)ccc2o1
> 5 µM

----------
Molecular target: Coagulation factor VII (Homo sapiens, UniProt P08709)
Sequence (P08709 whole entry): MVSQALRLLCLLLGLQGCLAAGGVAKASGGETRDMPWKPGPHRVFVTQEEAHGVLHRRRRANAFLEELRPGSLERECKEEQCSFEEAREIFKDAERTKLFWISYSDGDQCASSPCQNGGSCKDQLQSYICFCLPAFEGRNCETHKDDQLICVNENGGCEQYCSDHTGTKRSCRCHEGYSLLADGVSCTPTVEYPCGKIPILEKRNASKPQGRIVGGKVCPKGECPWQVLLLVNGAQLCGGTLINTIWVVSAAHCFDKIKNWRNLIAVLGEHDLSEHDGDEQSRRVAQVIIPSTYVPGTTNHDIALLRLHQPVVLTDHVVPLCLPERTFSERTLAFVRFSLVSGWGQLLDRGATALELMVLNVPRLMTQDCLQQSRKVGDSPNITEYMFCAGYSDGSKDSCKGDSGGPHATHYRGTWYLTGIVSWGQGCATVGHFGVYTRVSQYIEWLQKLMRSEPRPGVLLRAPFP
quantity.name: Ki

Provide one value: measured Ki of Cc1cc2cc(NC(=N/[C@H]3CCCCN(CC(=O)N4CCCC4)C3=O)/C(C#N)=C(\O)OCCCCO)ccc2o1
> 55 µM
